Molecular target: T1, recombinant human CD3 epsilon/delta heterodimer (human, UniProt P07766 23-126; P04234 22-105)
T1 construct: Recombinant protein in solution (200-50 nM) in the Octet assay; also called hCD3 E/D; human CD3E/D
T1 sequence (P07766 23-126, stated change not applied, chain 1 of 2): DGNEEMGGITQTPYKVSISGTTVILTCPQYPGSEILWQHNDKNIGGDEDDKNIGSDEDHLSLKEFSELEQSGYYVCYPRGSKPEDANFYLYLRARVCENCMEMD
T1 sequence (P04234 22-105, stated change not applied, chain 2 of 2): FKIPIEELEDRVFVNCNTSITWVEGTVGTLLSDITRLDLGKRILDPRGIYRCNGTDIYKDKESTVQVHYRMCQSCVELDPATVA
Experiment: Octet BLI, mAb on FAB2G sensor, hCD3 E/D 200-50 nM; R^2 0.99
Consider the following binders; for each one, report its Response.
Give bare numbers.

Parameter requested: Response. Apply to each item below.
1. ABL-CD3-55 (antibody, V domains shown, Chimeric hybridoma mAb: human V, CH1, upper hinge; mouse middle hinge, CH2, CH3) VH: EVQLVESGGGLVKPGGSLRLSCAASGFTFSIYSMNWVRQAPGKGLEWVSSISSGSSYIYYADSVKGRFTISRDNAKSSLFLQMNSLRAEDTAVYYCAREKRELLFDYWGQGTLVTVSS VL: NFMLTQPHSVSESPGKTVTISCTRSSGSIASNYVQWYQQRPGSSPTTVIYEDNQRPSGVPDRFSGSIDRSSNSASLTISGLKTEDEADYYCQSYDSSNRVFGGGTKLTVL
2. ABL-CD3-9 (antibody, V domains shown, Chimeric hybridoma mAb: human V, CH1, upper hinge; mouse middle hinge, CH2, CH3) VH: EVQLVDSGGGLVKPGGSLRLSCAASGFTFSSYSMNWVRQAPGKGLEWVSSVNSRGSYIYYADSVKGRFTISRDNAKNSLYLQMNSLRADDTAVYYCARDRRELLLDYWGQGTLVTVSS VL: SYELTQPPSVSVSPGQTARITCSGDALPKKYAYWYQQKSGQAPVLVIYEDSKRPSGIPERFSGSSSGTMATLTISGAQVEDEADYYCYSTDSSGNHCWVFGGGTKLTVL
3. ABL-CD3-24 (antibody, V domains shown, Chimeric hybridoma mAb: human V, CH1, upper hinge; mouse middle hinge, CH2, CH3) VH: EVQLVESGGGLVKPGGSLRLSCVASGFTFSSYTMNWVRQAPGKGLEWVSSISRSGSYKYNADSVKGRFTISRDNAKNSLYLQMNSLRVEDTAVYYCAREPPTLGMDYWGQGTLVTVSS VL: NFMLTQPHSVSESPGKTVTISCTRSSGSIASNYVQWYQQRPGSSPTTVIYEDNQRPSGVPDRFSGSIDSSSNSASLTISGLKTEDEADYYCQSFYSSNRVFGGGTELTVL

1: 0.13; 2: 0.34; 3: 0.93
